target: HIV-1 pseudovirus AC10.0.29 (HIV-1); test: cell-based or functional assay
Reported values of IC80 (neutralization in TZM.bl cells) for individual entries
Your answer should be a number followed by the unit of measure.

Here's what some known entries look like.
binder | experimental.result
MS-85 (antibody, V domains shown) VH: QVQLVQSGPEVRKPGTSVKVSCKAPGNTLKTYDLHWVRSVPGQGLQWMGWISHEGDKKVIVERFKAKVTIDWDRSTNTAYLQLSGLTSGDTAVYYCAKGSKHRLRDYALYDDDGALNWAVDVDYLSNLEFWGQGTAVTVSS VL: DIVLTQSPHSLSVTPGESASISCKSSHSLIHGDRNNYLAWYVQKPGRSPQLLIYLASSRASGVPDRFSGSGSGTDFTLKISRVETEDVGTYYCMQGRESPWTFGQGTKVDIKR | 0.242 µg/mL
MS-74 (antibody, V domains shown) VH: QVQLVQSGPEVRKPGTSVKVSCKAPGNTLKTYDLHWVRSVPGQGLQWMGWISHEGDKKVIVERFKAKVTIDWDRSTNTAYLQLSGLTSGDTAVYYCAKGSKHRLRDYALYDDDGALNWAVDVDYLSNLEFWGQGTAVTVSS VL: DFVLTQSPHSLSVTPGESASISCKSSHSLIHGDRNNYLAWYVQKPGRSPQLLIYLASSRASGVPDRFSGSGSDKDFTLKISRVETEDVGVYYCMQGRESPWTFGQGTKVDIKR | 0.216 µg/mL
MS-91 (antibody, V domains shown) VH: QVQLVQSGPEVRKPGTSVKVSCKASGYTLKTYDLHWVRSVPGQGLQWMGWISHEGDKKVIVERFKAKVTIDWDRSTNTAYLQLSGLTSGDTAVYYCAKGSKHRLRDYALYDDDGALNWAVDVDYLSNLEFWGQGTAVTVSS VL: DFVLTQSPLSLSVTPGESASISCKSSHSLIHGDRNNYLAWYVQKPGRSPQLLIYLASSRASGVPDRFSGSGSDTDFTLKISRVETEDVGTYYCMQGRESPWTFGQGTKVDIKR | 0.632 µg/mL
MS-80 (antibody, V domains shown) VH: QVQLVQSGPEVRKPGTSVKVSCKAPGNTLKTYDLHWVRSVPGQGLQWMGWISHEGDKKVIVERFKAKVTIDRDRSTNTAYLQLSGLTSGDTAVYYCAKGSKHRLRDYALYDDDGALNWAVDVDYLSNLEFWGQGTAVTVSS VL: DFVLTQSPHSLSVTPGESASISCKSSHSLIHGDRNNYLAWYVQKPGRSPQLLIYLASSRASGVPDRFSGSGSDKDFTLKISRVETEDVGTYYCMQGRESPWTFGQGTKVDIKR | 0.28 µg/mL
MS-70 (antibody, V domains shown) VH: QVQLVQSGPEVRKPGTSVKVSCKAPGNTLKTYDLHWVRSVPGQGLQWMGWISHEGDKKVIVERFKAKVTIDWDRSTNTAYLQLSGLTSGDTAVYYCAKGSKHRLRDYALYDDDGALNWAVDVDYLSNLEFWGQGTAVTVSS VL: DFVLTQSPHSLSVTPGESASISCKSSHSLIHGDRNNYLAWYVQKPGQSPQLLIYLASSRASGVPDRFSGSGSDKDFTLKISRVETEDVGTYYCMQGRESPWTFGQGTKVDIKR | 0.206 µg/mL
MS-83 (antibody, V domains shown) VH: QVQLVQSGPEVRKPGTSVKVSCKAPGNTLKTYDLHWVRSVPGQGLQWMGWISHEGDKKVIVERFKAKVTIDWDRSTNTAYLQLSGLTSGDTAVYYCAKGSKHRLRDYALYDDEGALNWAVDVDYLSNLEFWGQGTAVTVSS VL: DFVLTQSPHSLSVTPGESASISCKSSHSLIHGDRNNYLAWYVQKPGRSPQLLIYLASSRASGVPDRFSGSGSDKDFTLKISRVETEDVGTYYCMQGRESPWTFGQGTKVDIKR | 0.259 µg/mL

input: Hello, please tell me recorded IC80 (neutralization in TZM.bl cells) for this one: MS-88 (antibody, V domains shown) VH: QVQLVQSGPEVRKPGTSVKVSCKASGYTFKTYDLHWVRSVPGQGLQWMGWISHEGDKKVIVERFKAKVTITRDRSTNTAYLQLSGLTSGDTAVYYCAKGSKHRLRDYALYDDDGALNWAVDVDYLSNLEFWGQGTAVTVSS VL: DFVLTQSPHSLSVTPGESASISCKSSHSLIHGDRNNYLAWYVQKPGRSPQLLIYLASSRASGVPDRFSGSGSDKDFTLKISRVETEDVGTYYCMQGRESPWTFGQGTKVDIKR
output: 0.743 µg/mL
